# procedure text: Acute oral toxicity test in mice
# measurement setup: mouse, in vivo, suspension in 1% methylcellulose solution, male mice (ICR, 5-week-old), doses 0.5 g to 5.0 g/kg
outcome measure: LD50

compound="CCOC(=O)OC(C)OC(=O)C1=CCS[C@@H]2[C@H](NC(=O)/C(=N\\OC)c3csc(N)n3)C(=O)N12 (single isomer, unassigned)" outcome_measure=LD50 assay_value="> 5000 mg/kg"
